Target: T1, TNFR2-His (Sino Biological, 10417-H08H, NP_001057.1 Met1-Asp257, with multi-histidine tag expressed on … (human, UniProt P20333 23-257))
T1 construct: range 1-257; Bought protein; also called recombinant human TNFR2 protein; TNFR2-His antigen; not shown: C-terminal multi-histidine tag
T1 sequence (looked up): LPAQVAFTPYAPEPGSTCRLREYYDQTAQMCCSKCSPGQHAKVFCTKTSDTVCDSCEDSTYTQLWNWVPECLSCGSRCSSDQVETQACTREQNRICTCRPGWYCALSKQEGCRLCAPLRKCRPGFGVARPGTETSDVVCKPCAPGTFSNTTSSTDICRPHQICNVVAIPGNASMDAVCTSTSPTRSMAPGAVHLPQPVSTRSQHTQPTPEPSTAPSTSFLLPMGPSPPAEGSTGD
Experiment: ELISA, coated TNFR2-His
pEC50: −log10 of the molar value.

binder: 11G2huVH5 + huVL1(P07266) (antibody, V domains shown, Humanized 11G2) VH: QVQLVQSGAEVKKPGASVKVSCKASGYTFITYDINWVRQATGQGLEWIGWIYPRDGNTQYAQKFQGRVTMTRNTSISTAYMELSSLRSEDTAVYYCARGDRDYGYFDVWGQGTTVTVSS VL: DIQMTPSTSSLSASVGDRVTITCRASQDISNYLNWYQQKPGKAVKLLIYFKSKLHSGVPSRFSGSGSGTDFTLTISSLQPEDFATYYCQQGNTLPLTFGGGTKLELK
pEC50: 10.03
